Entry source: PubChem BioAssay (EPA / NIEHS)

target-desc: Estrogen receptor (Homo sapiens) (UniProt P03372)
Sequence (P03372 whole entry, looked up): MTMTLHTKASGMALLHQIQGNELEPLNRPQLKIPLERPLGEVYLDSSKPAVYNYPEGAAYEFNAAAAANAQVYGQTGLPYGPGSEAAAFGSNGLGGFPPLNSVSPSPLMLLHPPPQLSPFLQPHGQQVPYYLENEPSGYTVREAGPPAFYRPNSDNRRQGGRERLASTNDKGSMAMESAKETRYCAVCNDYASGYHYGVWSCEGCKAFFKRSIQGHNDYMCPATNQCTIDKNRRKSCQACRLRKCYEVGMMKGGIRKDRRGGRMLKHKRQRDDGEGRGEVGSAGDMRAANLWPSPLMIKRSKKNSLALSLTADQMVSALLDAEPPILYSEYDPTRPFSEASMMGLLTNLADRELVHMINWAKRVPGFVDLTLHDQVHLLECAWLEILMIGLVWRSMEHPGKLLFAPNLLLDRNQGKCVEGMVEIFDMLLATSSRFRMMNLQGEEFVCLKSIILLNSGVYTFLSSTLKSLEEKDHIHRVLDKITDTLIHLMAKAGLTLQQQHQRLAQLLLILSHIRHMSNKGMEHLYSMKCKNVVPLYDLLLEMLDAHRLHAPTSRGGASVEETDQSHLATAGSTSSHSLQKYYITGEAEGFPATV
procedure-summary: ATG_ERa_TRANS: Attagene TRANS-FACTORIAL HepG2 Assay for human Estrogen Receptor alpha (ERa) (AID 2282970)
run-parameters: HepG2 Attagene TRANS ERa GAL4 reporter, mRNA
Method: ATG_TRANS is a cell-based, multiplexed-readout assay that uses HepG2, a human liver cell line, with measurements taken at 24 hours after chemical dosing in a 24-well plate.ATG_ERa_TRANS is one of 30 assay component(s) measured or calculated from the ATG_TRANS assay. […] This assay endpoint, ATG_ERa_TRANS, was analyzed in the positive analysis fitting direction relative to DMSO as the negative control and baseline of activity. […]
Records with an inconclusive call do not appear. Activity calls are given as the source filed them. Rule for the calls: active = hit-call score of the fitted dose curve at least 0.9, where 1 is the maximum; inconclusive = response in the unintended direction; inactive = score below 0.9.
measure: AC50

Solved entries (count: 4):
[Q] Please report the measured AC50 for CCCCCCC1(C)CCC(=O)O1 (stereo not given)
[A] inactive

[Q] Please report the measured AC50 for CC(=O)Nc1nnc(S(N)(=O)=O)s1
[A] inactive

[Q] Please report the measured AC50 for CC(=O)OC1C2(C)CCC(C2)C1(C)C (stereo not given)
[A] inactive

[Q] Please report the measured AC50 for Cc1ccc(N/N=c2\c(=O)cc/c(=N/Nc3ccc(S(=O)(=O)O)cc3)c2=O)c(C)c1
[A] 100 µM (active)

---
[Q] Please report the measured AC50 for CC1(C)O[C@@H]2C[C@H]3[C@@H]4C[C@H](F)C5=CC(=O)C=C[C@]5(C)[C@@]4(F)[C@@H](O)C[C@]3(C)[C@]2(C(=O)CO)O1
[A] 9.67 µM (active)

* * *

procedure-summary: ATG_NRF2_ARE_CIS: Attagene CIS-FACTORIAL HepG2 Assay for human Nuclear Factor Erythroid 2 Related Factor 2 (NFR2) response to Antioxidant Response Elements (ARE) (AID 2282992)
run-parameters: HepG2 Attagene ARE/NRF2 reporter, transcription factor activity; actives raise or lower the signal
Calls of active or inactive are those of the source. The calls were made as follows: active = hit-call score of the fitted dose curve at least 0.9, where 1 is the maximum; inactive = score below 0.9.
The categories you may choose from are active, inactive

Take a look at these entries with their results.
[Q] Which outcome was assigned to COC(=O)c1sccc1S(N)(=O)=O in this test?
[A] inactive

[Q] Which outcome was assigned to CC(C)c1ccc(C#N)cc1 in this test?
[A] inactive

[Q] Which outcome was assigned to O=c1[nH]c(=O)c2[nH]c(=O)[nH]c2[nH]1 in this test?
[A] inactive

[Q] Which outcome was assigned to CCN(CC)c1ccc(C(=O)c2ccccc2C(=O)O)c(O)c1 in this test?
[A] inactive

[Q] Which outcome was assigned to COCCCOCCCOC in this test?
[A] inactive

[Q] Which outcome was assigned to CC(C)(C)C1CCCCC1=O (configuration not stated) in this test?
[A] inactive

[Q] Which outcome was assigned to Cc1ccc(N/N=c2\c(=O)cc/c(=N/Nc3ccc(S(=O)(=O)O)cc3)c2=O)c(C)c1 in this test?
[A] inactive

[Q] Which outcome was assigned to N=c1ccn2c(n1)O[C@H]1[C@H](O)[C@@H](CO)O[C@H]12 in this test?
[A] inactive

---
[Q] Which outcome was assigned to Clc1nc2ccccc2s1 in this test?
[A] inactive

[Q] Which outcome was assigned to CCOc1nc(F)cc2nc(S(=O)(=O)Nc3c(Cl)cccc3C(=O)OC)nn12 in this test?
[A] active

[Q] Which outcome was assigned to C=CC(=O)OCCOC(=O)C=C in this test?
[A] inactive

[Q] Which outcome was assigned to CCC(=O)Oc1ccc(/C(CC)=C(\CC)c2ccc(OC(=O)CC)cc2)cc1 in this test?
[A] inactive

[Q] Which outcome was assigned to O=[N+]([O-])c1ccc(CO)cc1 in this test?
[A] inactive

[Q] Which outcome was assigned to C=CC(C)(C)C in this test?
[A] inactive

[Q] Which outcome was assigned to CC(C)c1ccc(C=O)cc1 in this test?
[A] inactive

[Q] Which outcome was assigned to COc1ccc(C(Cl)=C(c2ccc(OC)cc2)c2ccc(OC)cc2)cc1 in this test?
[A] inactive

[Q] Which outcome was assigned to CC(C)=CCCC(C)C=O (configuration not stated) in this test?
[A] inactive

[Q] Which outcome was assigned to CCOC(=O)NNc1nncc2ccccc12 in this test?
[A] inactive

[Q] Which outcome was assigned to O=CC1CC1 in this test?
[A] inactive

[Q] Which outcome was assigned to c1c[nH]cn1 in this test?
[A] inactive

* * *

Read-out: Vascular endothelial growth factor receptor 2 (Homo sapiens) (UniProt P35968)
procedure-summary: BSK_4H_VEGFRII: BioMAP Diversity Plus: 4H Assay for Vascular endothelial growth factor receptor 2 (VEGFR2) Biomarker Activity (AID 2283031)
run-parameters: primary human endothelial cells (HUVEC); actives raise or lower the signal
The source made the active and inactive calls. How the source made its calls: active means hit-call score of the fitted dose curve at least 0.9, where 1 is the maximum; inactive means score below 0.9.
measure: outcome

[Q] Please report the measured outcome for C=CC=CC=CCCCCC
[A] inactive

[Q] Please report the measured outcome for S=C(NC1CCCCC1)NC1CCCCC1
[A] inactive

[Q] Please report the measured outcome for CCOc1nc(F)cc2nc(S(=O)(=O)Nc3c(Cl)cccc3C(=O)OC)nn12
[A] inactive

* * *

target-desc: X-box-binding protein 1 (Homo sapiens) (UniProt P17861)
Sequence (P17861 whole entry, looked up): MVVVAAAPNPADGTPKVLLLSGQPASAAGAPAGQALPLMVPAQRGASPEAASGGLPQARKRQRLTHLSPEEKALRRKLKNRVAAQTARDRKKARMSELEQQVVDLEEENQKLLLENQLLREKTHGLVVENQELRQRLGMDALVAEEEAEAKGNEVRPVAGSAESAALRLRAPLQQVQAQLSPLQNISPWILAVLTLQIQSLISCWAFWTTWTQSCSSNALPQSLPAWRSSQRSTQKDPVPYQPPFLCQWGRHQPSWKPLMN
procedure-summary: ATG_Xbp1_CIS: Attagene CIS-FACTORIAL HepG2 Assay for human X-box Binding Protein 1 (XBP1) (AID 2282972)
run-parameters: HepG2 XBP1 cis-element reporter, Attagene multiplex; actives raise or lower the signal
Experimental: ATG_CIS is a cell-based, multiplexed-readout assay that uses HepG2, a human liver cell line, with measurements taken at 24 hours after chemical dosing in a 24-well plate.ATG_Xbp1_CIS is one of 52 assay component(s) measured or calculated from the ATG_CIS assay. […] This assay endpoint, ATG_Xbp1_CIS, was analyzed with bidirectional fitting relative to DMSO as the negative control and baseline of activity. […]
Active and inactive are the calls of the source. How the source made its calls: active means hit-call score of the fitted dose curve at least 0.9, where 1 is the maximum; inactive means score below 0.9.
The categories you may choose from are Y for active, N for inactive

Take a look at these entries with their results.
[Q] Which outcome was assigned to Clc1nc2ccccc2s1 in this test?
[A] N

[Q] Which outcome was assigned to C=CC(=O)OCC(Br)CBr (configuration not stated) in this test?
[A] N

[Q] Which outcome was assigned to O=C(Nc1ccccc1SSc1ccccc1NC(=O)c1ccccc1)c1ccccc1 in this test?
[A] N

[Q] Which outcome was assigned to O=S(=O)(O)c1ccc2cc(O)c(S(=O)(=O)O)cc2c1 in this test?
[A] Y

[Q] Which outcome was assigned to Cc1cccc(N)n1 in this test?
[A] N

[Q] Which outcome was assigned to CCCCCCCOC(=O)CCC in this test?
[A] N

[Q] Which outcome was assigned to Cc1cc(C)c(C)c(O)c1 in this test?
[A] N

[Q] Which outcome was assigned to CCCC(C)CCC(C)=O (configuration not stated) in this test?
[A] N

[Q] Which outcome was assigned to C1=Cc2ccccc2C1 in this test?
[A] N

[Q] Which outcome was assigned to CC=C1CC2C=CC1C2 (configuration not stated) in this test?
[A] N

Now look at this entry.
[Q] Which outcome was assigned to CC(=O)OC1C2(C)CCC(C2)C1(C)C (configuration not stated) in this test?
[A] N

* * *

Read-out: Secreted IgG (sIgG), gene 3500
procedure-summary: BSK_BT_sIgG: BioMAP Diversity Plus: BT Assay for Secreted IgG (sIgG) Biomarker Activity (AID 2284226)
run-parameters: primary human B cells with PBMC
The source made the active and inactive calls. Rule for the calls: active = hit-call score of the fitted dose curve at least 0.9, where 1 is the maximum; inactive = score below 0.9.
The categories you may choose from are label 1 for active, label 0 for inactive

Take a look at these entries with their results.
[Q] Which outcome was assigned to CCCCNc1ccc(NCCCC)c2c1C(=O)c1ccccc1C2=O in this test?
[A] label 0

[Q] Which outcome was assigned to O=Nc1ccc(O)cc1 in this test?
[A] label 0

[Q] Which outcome was assigned to CCCCCCCCc1ccc(Nc2ccc(CCCCCCCC)cc2)cc1 in this test?
[A] label 0

---
[Q] Which outcome was assigned to CCCCC/C=C\C/C=C\CCCCCCCC(=O)OC in this test?
[A] label 1

[Q] Which outcome was assigned to C=CCOc1c(Br)cc(Br)cc1Br in this test?
[A] label 0

[Q] Which outcome was assigned to c1ccc2c(c1)ccc1ncccc12 in this test?
[A] label 0

[Q] Which outcome was assigned to O=c1c2ccccc2oc2ccccc12 in this test?
[A] label 1

[Q] Which outcome was assigned to c1ccc2c(c1)ccc1cc3c(ccc4ccccc43)cc12 in this test?
[A] label 0

* * *

procedure-summary: ATG_PPRE_CIS: Attagene CIS-FACTORIAL HepG2 Assay for human Peroxisome Proliferator-activated Response Element (PPRE) (AID 2282958)
run-parameters: HepG2 PPRE cis-element reporter, Attagene transcription factor profiling; actives raise or lower the signal
The source made the active and inactive calls. The calls were made as follows: active = hit-call score of the fitted dose curve at least 0.9, where 1 is the maximum; inactive = score below 0.9.
The categories you may choose from are yes (1) for active, no (0) for inactive

[Q] Which outcome was assigned to O=C(Nc1ccccc1)c1ccccc1O in this test?
[A] yes (1)

Now look at this entry.
[Q] Which outcome was assigned to O=S(=O)(O)c1cc(S(=O)(=O)O)c2ccc3c(S(=O)(=O)O)cc(S(=O)(=O)O)c4ccc1c2c43 in this test?
[A] no (0)
